Source listed as patent US20240109865A1.

Target: FGFR1 (Homo sapiens (Human))
Sequence (P11362 22-822): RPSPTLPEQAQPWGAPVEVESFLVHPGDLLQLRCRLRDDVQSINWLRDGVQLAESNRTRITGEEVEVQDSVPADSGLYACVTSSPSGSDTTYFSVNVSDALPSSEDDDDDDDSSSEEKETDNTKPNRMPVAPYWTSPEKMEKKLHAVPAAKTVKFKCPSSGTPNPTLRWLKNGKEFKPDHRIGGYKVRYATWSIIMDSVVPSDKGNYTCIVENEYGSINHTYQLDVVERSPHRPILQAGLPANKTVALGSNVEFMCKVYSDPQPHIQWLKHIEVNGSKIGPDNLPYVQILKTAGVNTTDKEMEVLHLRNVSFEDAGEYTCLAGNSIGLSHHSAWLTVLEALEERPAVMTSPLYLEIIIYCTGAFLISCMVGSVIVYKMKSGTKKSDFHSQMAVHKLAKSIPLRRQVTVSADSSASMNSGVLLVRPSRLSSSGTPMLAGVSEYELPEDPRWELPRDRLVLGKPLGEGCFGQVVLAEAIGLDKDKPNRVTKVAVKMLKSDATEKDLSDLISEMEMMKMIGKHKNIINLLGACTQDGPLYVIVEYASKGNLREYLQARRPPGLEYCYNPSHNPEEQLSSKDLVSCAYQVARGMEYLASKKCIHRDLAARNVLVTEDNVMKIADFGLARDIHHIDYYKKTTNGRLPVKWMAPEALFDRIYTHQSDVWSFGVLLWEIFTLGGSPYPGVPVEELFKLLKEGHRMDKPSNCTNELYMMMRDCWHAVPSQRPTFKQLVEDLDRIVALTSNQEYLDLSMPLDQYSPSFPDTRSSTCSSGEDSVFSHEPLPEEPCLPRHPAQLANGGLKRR
Test: Kinase assay, binding constants (Kd), kinase-tagged T7 phage, qPCR
Procedure: Kinase-tagged T7 phage strains were prepared in an E. coli host derived from the BL21 strain. E. coli were grown to log-phase and infected with T7 phage and incubated with shaking at 32° C. until lysis. The lysates were centrifuged and filtered to remove cell debris. […] Test compounds were prepared as 111λ stocks in 10000 DMS0. Kds were determined using an 11-point 3-fold compound dilution series with three DMSO control points. […] The kinase concentration in the eluates was measured by qPCR. […]
// Kd lookup, one value per entry

Recorded Kd, per entry:
**Query** Bench note: what Kd did C[C@@H](Oc1ccc2[nH]nc(-c3cnc(N4CCC5(CC4)C(=O)NCCN5C)nc3)c2c1)c1c(Cl)cncc1Cl show?
**Result** 20 to 100 nM

**Query** Next entry: CCOC(=O)N1CCC2(CC1)CN(c1ncc(-c3n[nH]c4ccc(O[C@H](C)c5c(Cl)cncc5Cl)cc34)cn1)C2
**Result** 100 to 300 nM

**Query** Next entry: Cc1cnnc(C)c1[C@H](C)Oc1ccc2[nH]nc(-c3cnc(N4CC5(CCS(=O)(=O)C5)C4)nc3)c2c1
**Result** > 300 nM

Moving on to another compound below.
**Query** Bench note: what Kd did C[C@@H](Oc1cc2c(-c3cnc(N4CCC4)c(CN(C)C)c3)n[nH]c2cc1Cl)c1c(Cl)cncc1Cl show?
**Result** 100 to 300 nM

* * *

// Kd lookup, one value per entry
target: FGFR1 (Homo sapiens (Human)); experiment: Kinase assay, binding constants (Kd), kinase-tagged T7 phage, qPCR

Recorded Kd, per entry:
**Query** Bench note: what Kd did C[C@@H](Oc1cc2c(-c3ccc(N4CC5(C4)CN(S(C)(=O)=O)C5)nc3)n[nH]c2cc1Cl)c1c(Cl)cnnc1Cl show?
**Result** 1 to 20 nM

**Query** Next entry: C[C@@H](Oc1ccc2[nH]nc(-c3cnc(N4CCC5(CCC(=O)N5)CC4)nc3)c2c1)c1c(Cl)cncc1Cl
**Result** 20 to 100 nM

Continuing:
**Query** Bench note: what Kd did C[C@@H](Oc1ccc2[nH]nc(-c3cnc(N4CC5(CCCN(S(C)(=O)=O)C5)C4)nc3)c2c1)c1c(Cl)cncc1Cl show?
**Result** 20 to 100 nM

**Query** Next entry: Cc1ncc(Cl)c([C@@H](C)Oc2cc3c(-c4cnc(N5CCC5)c(F)c4)n[nH]c3cc2Cl)c1Cl
**Result** 100 to 300 nM

* * *

molecular target: FGFR3 (V555M) (Homo sapiens (Human), UniProt P22607, V555M); assay: Kinase assay, binding constants (Kd), kinase-tagged T7 phage, qPCR; conditions: V555M mutant
Sequence (P22607 23-806 V555M): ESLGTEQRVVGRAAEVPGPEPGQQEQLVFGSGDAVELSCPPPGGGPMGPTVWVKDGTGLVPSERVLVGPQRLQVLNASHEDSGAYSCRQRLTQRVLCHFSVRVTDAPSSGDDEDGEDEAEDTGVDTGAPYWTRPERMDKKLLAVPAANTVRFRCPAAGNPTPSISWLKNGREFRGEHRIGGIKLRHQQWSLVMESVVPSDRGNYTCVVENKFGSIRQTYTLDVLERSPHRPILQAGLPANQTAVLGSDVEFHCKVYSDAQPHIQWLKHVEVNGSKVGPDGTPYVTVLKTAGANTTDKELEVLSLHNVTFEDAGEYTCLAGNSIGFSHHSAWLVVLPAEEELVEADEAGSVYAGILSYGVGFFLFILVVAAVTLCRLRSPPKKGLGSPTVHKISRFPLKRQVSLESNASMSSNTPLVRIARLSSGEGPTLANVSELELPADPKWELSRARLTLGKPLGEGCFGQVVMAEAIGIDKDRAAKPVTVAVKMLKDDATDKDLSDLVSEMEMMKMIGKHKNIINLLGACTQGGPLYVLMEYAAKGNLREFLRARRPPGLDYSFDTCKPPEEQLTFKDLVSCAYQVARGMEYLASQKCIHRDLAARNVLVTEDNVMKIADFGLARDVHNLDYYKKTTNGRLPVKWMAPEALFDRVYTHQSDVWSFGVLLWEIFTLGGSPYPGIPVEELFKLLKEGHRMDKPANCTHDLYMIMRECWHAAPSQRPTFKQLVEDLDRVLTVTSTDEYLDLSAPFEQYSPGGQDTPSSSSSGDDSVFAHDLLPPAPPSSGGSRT
metric: Kd

Recorded Kd, per entry:
**Query** Bench note: what Kd did C[C@@H](Oc1ccc2[nH]nc(-c3cnn(C4CCN(C(=O)CCN(C)C)CC4)c3)c2c1)c1c(Cl)cncc1Cl show?
**Result** 1 to 20 nM

**Query** Next entry: COc1cc2[nH]nc(-c3cnc(N4CCC4)c(S(C)(=O)=O)c3)c2cc1O[C@H](C)c1c(Cl)cncc1Cl
**Result** 20 to 100 nM

**Query** Next entry: COc1cc2[nH]nc(-c3cnc(N4CC5(CCS(=O)(=O)C5)C4)c(C#N)c3)c2cc1O[C@H](C)c1c(Cl)cncc1Cl
**Result** 1 to 20 nM

**Query** Next entry: C[C@@H](Oc1ccc2[nH]nc(-c3cnc(N4CCC5(CC4)CC(=O)NC5=O)nc3)c2c1)c1c(Cl)cncc1Cl
**Result** 1 to 20 nM

**Query** Next entry: COc1cc2[nH]nc(-c3cnc(N4CCC4)c(F)c3)c2cc1O[C@H](C)c1c(Cl)cncc1Cl
**Result** 1 to 20 nM

**Query** Next entry: C[C@@H](Oc1ccc2[nH]nc(-c3cnc(N4CC5(CCCS(=O)(=O)C5)C4)c(C#N)c3)c2c1)c1c(Cl)cncc1Cl
**Result** 100 to 300 nM

Continuing:
**Query** Bench note: what Kd did COc1cc2[nH]nc(-c3cnc(N4CC[C@@H](O)C4)c(C#N)c3)c2cc1O[C@H](C)c1c(C)cnnc1C show?
**Result** 1 to 20 nM

**Query** Next entry: Cc1cnnc(C)c1[C@@H](C)Oc1ccc2[nH]nc(-c3cnc(N4CC5CC(C4)N5CC(C)(C)O)c(C#N)c3)c2c1
**Result** 1 to 20 nM

**Query** Next entry: C[C@@H](Oc1ccc2[nH]nc(-c3cnc(N4CCNCC4)nc3)c2c1)c1c(Cl)cncc1Cl
**Result** 1 to 20 nM

**Query** Next entry: COC(=O)N1CCC2(CC1)CN(c1ncc(-c3n[nH]c4ccc(O[C@H](C)c5c(Cl)cncc5Cl)cc34)cn1)C2
**Result** 1 to 20 nM

**Query** Next entry: COc1cc2[nH]nc(-c3ccc(N4CC5(C4)CN(S(C)(=O)=O)C5)nc3)c2cc1O[C@H](C)c1c(C)cnnc1C
**Result** 1 to 20 nM

**Query** Next entry: Cc1ncc(Cl)c([C@@H](C)Oc2ccc3[nH]nc(-c4cnn(C5CCNCC5)c4)c3c2)c1Cl
**Result** 1 to 20 nM

**Query** Next entry: C[C@@H](Oc1ccc2[nH]nc(-c3cnn(C4CCN(C5COC5)CC4)c3)c2c1)c1cc(F)cc(F)c1
**Result** 1 to 20 nM

**Query** Next entry: COc1c(O[C@H](C)c2c(C)cnnc2C)ccc2[nH]nc(-c3ccc(N4CC5(C4)CN(S(C)(=O)=O)C5)nc3)c12
**Result** 100 to 300 nM

* * *

Molecular target: FGFR3 (Homo sapiens (Human), UniProt P22607)
Test: Kinase assay, binding constants (Kd), kinase-tagged T7 phage, qPCR
Conditions: given as a number
Experimental: Kinase-tagged T7 phage strains were prepared in an E. coli host derived from the BL21 strain. E. coli were grown to log-phase and infected with T7 phage and incubated with shaking at 32° C. until lysis. The lysates were centrifuged and filtered to remove cell debris. […] Test compounds were prepared as 111λ stocks in 10000 DMS0. Kds were determined using an 11-point 3-fold compound dilution series with three DMSO control points. […] The kinase concentration in the eluates was measured by qPCR. […]
metric: Kd (nM)
Response body: numeric value in nM, unit text excluded.

**Query** Bench note: what Kd did Cc1ncc(Cl)c([C@@H](C)Oc2ccc3[nH]nc(-c4cnc(N5CC6(CCCN(S(C)(=O)=O)C6)C5)c(C#N)c4)c3c2)c1Cl show?
**Result** 90

* * *

target: FGFR3-BAIAP2L1 Ba/F3 cells (Homo sapiens); assay: Ba/F3 cell viability assay (CellTiter-Glo 2.0), FGFR3-BAIAP2L1 Ba/F3; type: cell-based; settings: read-out: Ba/F3 Cells FGFR3 (IC50 nM); FGFR3-BAIAP2L1 Ba/F3 cells, 48 hours, Cell Titer Glo 2.0
Sequence (P22607 23-806 limits assumed, change not shown): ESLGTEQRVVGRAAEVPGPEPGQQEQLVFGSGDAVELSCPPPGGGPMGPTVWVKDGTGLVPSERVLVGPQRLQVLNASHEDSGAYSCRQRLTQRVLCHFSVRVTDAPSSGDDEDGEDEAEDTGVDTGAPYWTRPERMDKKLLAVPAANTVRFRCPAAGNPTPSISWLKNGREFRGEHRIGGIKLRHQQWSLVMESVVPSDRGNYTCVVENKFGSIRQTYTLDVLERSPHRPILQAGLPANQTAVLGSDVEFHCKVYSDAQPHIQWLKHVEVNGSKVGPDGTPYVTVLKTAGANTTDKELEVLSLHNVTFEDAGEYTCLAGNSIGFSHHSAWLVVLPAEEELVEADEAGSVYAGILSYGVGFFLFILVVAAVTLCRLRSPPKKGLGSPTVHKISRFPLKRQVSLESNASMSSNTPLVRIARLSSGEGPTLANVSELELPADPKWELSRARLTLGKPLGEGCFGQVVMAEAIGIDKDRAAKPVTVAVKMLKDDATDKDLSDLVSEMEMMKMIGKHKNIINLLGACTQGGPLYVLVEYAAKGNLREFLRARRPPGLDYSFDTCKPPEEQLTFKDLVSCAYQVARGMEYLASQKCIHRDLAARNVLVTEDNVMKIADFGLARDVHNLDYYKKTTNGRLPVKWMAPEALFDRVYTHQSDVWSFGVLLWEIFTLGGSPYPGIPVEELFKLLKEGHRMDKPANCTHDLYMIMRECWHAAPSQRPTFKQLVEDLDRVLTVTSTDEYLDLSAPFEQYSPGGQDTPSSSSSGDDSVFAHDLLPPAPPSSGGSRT
// IC50 lookup, one value per entry

Recorded IC50, per entry:
**Query** Bench note: what IC50 did C[C@@H](Oc1ccc2[nH]nc(-c3ccc(N4CCC5(CCN(C)C5)CC4)nc3)c2c1)c1c(Cl)cncc1Cl show?
**Result** 1 to 20 nM

**Query** Next entry: C[C@@H](Oc1ccc2[nH]nc(-c3ccc(N4CCCNC(=O)C4)nc3)c2c1)c1c(Cl)cncc1Cl
**Result** 20 to 100 nM

**Query** Next entry: C[C@@H](Oc1ccc2[nH]nc(-c3ccc(N4CC5(CCCN(S(C)(=O)=O)C5)C4)nc3)c2c1)c1c(Cl)cncc1Cl
**Result** 1 to 20 nM

Moving on to another compound below.
**Query** Bench note: what IC50 did Cc1ncc(Cl)c([C@@H](C)Oc2ccc3[nH]nc(-c4ccc(N5CC6(C5)CN(S(C)(=O)=O)C6)nc4)c3c2)c1Cl show?
**Result** 1 to 20 nM

* * *

// Kd lookup, one value per entry
molecular target: FGFR3 (Homo sapiens (Human), UniProt P22607); assay: Kinase assay, binding constants (Kd), kinase-tagged T7 phage, qPCR

Recorded Kd, per entry:
**Query** Bench note: what Kd did C[C@@H](Oc1ccc2[nH]nc(-c3ccc(N4CCN(C(N)=O)CC4)nc3)c2c1)c1c(Cl)cncc1Cl show?
**Result** 1 to 20 nM

**Query** Next entry: C[C@@H](Oc1ccc2[nH]nc(-c3ccc(N4CCNC5(CC5)C4)nc3)c2c1)c1c(Cl)cncc1Cl
**Result** 1 to 20 nM

**Query** Next entry: C[C@@H](Oc1ccc2[nH]nc(-c3cnn(C4CCS(=O)(=O)CC4)c3)c2c1)c1cc(F)cc(F)c1
**Result** 20 to 100 nM

**Query** Next entry: COC(=O)N1CC2(C1)CN(c1ccc(-c3n[nH]c4ccc(O[C@H](C)c5c(Cl)cncc5Cl)cc34)cn1)C2
**Result** 1 to 20 nM

**Query** Next entry: Cc1cncc(C)c1[C@@H](C)Oc1ccc2[nH]nc(-c3ccc(N4CC5(C4)CN(S(C)(=O)=O)C5)nc3)c2c1
**Result** 1 to 20 nM

Continuing:
**Query** Bench note: what Kd did Cc1cncc(C)c1[C@H](C)Oc1ccc2[nH]nc(-c3ccc(N4CC5(C4)CN(S(C)(=O)=O)C5)nc3)c2c1 show?
**Result** 20 to 100 nM

**Query** Next entry: C[C@@H](Oc1ccc2[nH]nc(-c3ccc(N4CCN(C(=O)N(C)C)C5(CC5)C4)nc3)c2c1)c1c(Cl)cncc1Cl
**Result** 100 to 300 nM

**Query** Next entry: C[C@@H](Oc1ccc2[nH]nc(-c3ccc(N4CC5(CCOC5)C4)nc3)c2c1)c1c(Cl)cnc(F)c1Cl
**Result** 1 to 20 nM

**Query** Next entry: C[C@@H](Oc1ccc2[nH]nc(-c3ccc(N4CCOCC4)cn3)c2c1)c1c(Cl)cncc1Cl
**Result** 1 to 20 nM

**Query** Next entry: Cc1ncc(Cl)c([C@@H](C)Oc2ccc3[nH]nc(-c4cnc(N5CC6(CCCS(=O)(=O)C6)C5)c(C#N)c4)c3c2)c1Cl
**Result** 20 to 100 nM

**Query** Next entry: C[C@@H](Oc1ccc2[nH]nc(-c3cnc(N4CC[C@H](O)C4)c(C#N)c3)c2c1)c1c(Cl)cncc1Cl
**Result** 1 to 20 nM

**Query** Next entry: Cc1ncc(Cl)c([C@@H](C)Oc2ccc3[nH]nc(-c4ccc(N5CC6(COC6)C5)nc4)c3c2)c1Cl
**Result** 1 to 20 nM

**Query** Next entry: C[C@@H](Oc1ccc2[nH]nc(-c3cnc(N4CCCC4)c(C#N)c3)c2c1)c1c(Cl)cncc1Cl
**Result** 100 to 300 nM

**Query** Next entry: C[C@@H](Oc1ccc2[nH]nc(-c3cnn(C4CCN(CCO)CC4)c3)c2c1)c1c(Cl)cncc1Cl
**Result** 1 to 20 nM
